assay: yeast display, Sf9 membrane polyspecificity reagent, FACS + sequencing; frameworks hold sequencing errors
Value kind: polyreactivity (PSR sort gate)

Sequence chain	polyreactivity (PSR sort gate)
HVQIVESGGGLVQAGGSLRLSCADSGSTFLGYDMGWFRQAPGKVRELVATISKSGGSTHYADSVKGRFTISRDNAKNTVSLQMNSLKPEETAVYYCAADYYPRYYKNTGEYDYWGQGTQVTVSS	low polyreactivity
QVQLVESGGGLGQAGGSLRLSCAASGSTFYRFTRGWYRQAPGKERELVASIRWTGGRTNYADSVKGRFTISRDNAKNTVYLQMNSLKPEDTAVYYCAAYLKYPYGASYGSWGQGTQVTVSS	high polyreactivity
QVQLVESGGGLVQAGGSLRLSCAASGSTFGYNAMGWYRQAPGKEREFVATIRYSGDRTYYADSVKGRFTISRDNAKNTVYLQMNSLKPEDTAVYYCAADLYYNSYGRYGRYYYWGQGTQVNVSS	high polyreactivity
QVQLVETGGGLVQAGGSLRLSCAASGRIFKVYAMGWYRQAPGKERELDAAITSRGGSTYYADSVKGRFTISRDNAKNTVYLQMNSLKPEDTAVYYCAAARGLPSNKYYYWGQGTQVTVSS	high polyreactivity
QVQLVESGGGLVQAGGSLRLSCAASGRIFSHNAMGWYRQAPGKERELVAAISRSGGRTYYADSVKGRFTISRYNAKNTVYVQMKSLKPEDTAVYYCAADYRLKKSPGYSGEDDYWGQGTQVTVSS	high polyreactivity
QVQLVESGGGLVQAGGSLRLSCAASGRIVYRYAMGWYRQAPGKERELVAAISSGGSTYYADSVKGRFTISRDNAKNTVYLQMNSLKPEDTAVYYCAATWGRGTYYLYYYWGQGTQVTGSS	high polyreactivity
QVQLVESGGGLVQAGGSLRLSCAASGRIFLVYAMGRYRQAPGKERELVAAITSDGRTYYADSVKGRFTISRDNAKNTVYLQMNSLKPEDTAVYYCAADRYGAGYLYWPYDYWGQGTQVTVSS	low polyreactivity
QVQLVESGGGLVHAGGSLRLSCAASGIIFGVYAMGWYRQAPGKERELVAAISWSGGSTYYADSVKGRFTISRDNAKNNVYLQMNSLKPEDTAVYYCAADAYPHEDYYWGQGNQVTVSS	high polyreactivity
QVQLVDSGGGLVQAGGSLRLSCAASGSIFRGYAMGWYRQAPGKERELVAAIRRRAGTTYYADSVKARFTISRDNAKNTVYLQMNSLKPEDTAVYYCAVERYHSGDDYLGQGTQVTVSS	high polyreactivity
QVQLVESGGGLVQAGGSLRLSCAASGRIFGSYAMGWYIQAPGTERELVAAINRRGGSTFYADSVKGRFTISRDNAKNSVYLQMNSLKPEDTAVYYCARRGYRQSGDYWGQGTQVTLSS	low polyreactivity

Query string: Item `QVQLVESGGGLVQAGGSLRLSCAASGITYGYNTMGWYRQAPGKERELVADISRSGGRTYYADSVKARFTISRDNAKNTVYLQMNSLKPEDTAVYYCAAVSNSGHYYYWGQGTQVTVSS` has what recorded polyreactivity (PSR sort gate)?
Result string: high polyreactivity

Query string: Item `QVQLVESGGGLVQAGGSLRLSCAASGSSLWYNTMGWYRQAPGKERELVATISGSGANTYYADSVKGRFTISRDNAKNTDYLQMNSLKPEDTAGYYCAAVYRRWGYSSEYDYWGQGTQVTVSS` has what recorded polyreactivity (PSR sort gate)?
Result string: high polyreactivity

Query string: Item `QVQLVDSGGGLVQAGGSLPLSCAASGFSFVYYAMAWYREAPGKEREFVAAITERGGSTDYADSVKGRFTISRDNAKNTVYLQMNSLKPEDTAVYYCASRNAYVYGMDYWGQGTQVTVSS` has what recorded polyreactivity (PSR sort gate)?
Result string: low polyreactivity
